B1: EEHEE_rd4_0003 (parent)
chain: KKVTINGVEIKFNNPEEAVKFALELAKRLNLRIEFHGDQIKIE

variants of: B1; assay: folding stability dG (cDNA display proteolysis); higher = more stable; conditions: PBS, room temperature
So basically: folding stability dG at 3 kcal/mol or higher? That is satisfied. Lower than 3 kcal/mol? That is not satisfied.

Query string: folding stability dG >= 3 kcal/mol for `R28H` ?
Result string: not satisfied

Query string: folding stability dG >= 3 kcal/mol for `K11S` ?
Result string: not satisfied

Query string: folding stability dG >= 3 kcal/mol for `V19Q` ?
Result string: not satisfied

Query string: folding stability dG >= 3 kcal/mol for `E43V` ?
Result string: satisfied

Query string: folding stability dG >= 3 kcal/mol for `N14W` ?
Result string: not satisfied

Query string: folding stability dG >= 3 kcal/mol for `K20G` ?
Result string: not satisfied

Query string: folding stability dG >= 3 kcal/mol for `E43I` ?
Result string: satisfied

Query string: folding stability dG >= 3 kcal/mol for `K2V` ?
Result string: satisfied

Query string: folding stability dG >= 3 kcal/mol for `I42K` ?
Result string: not satisfied

Query string: folding stability dG >= 3 kcal/mol for `K1S` ?
Result string: not satisfied

Query string: folding stability dG >= 3 kcal/mol for `F35Y` ?
Result string: not satisfied
